// provenance: patent US7196103B2

- STUDY TARGET: human factor Xa (Homo sapiens)
- Sequence (P00742 235-488 limits assumed): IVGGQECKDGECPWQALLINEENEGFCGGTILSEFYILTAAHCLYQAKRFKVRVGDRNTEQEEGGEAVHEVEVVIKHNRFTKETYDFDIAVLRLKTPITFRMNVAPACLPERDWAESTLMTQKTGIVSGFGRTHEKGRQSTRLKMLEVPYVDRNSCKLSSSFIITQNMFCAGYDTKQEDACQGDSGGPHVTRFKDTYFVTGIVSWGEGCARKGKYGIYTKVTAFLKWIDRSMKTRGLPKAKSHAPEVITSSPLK
- Sequence (P00742 41-179 partner limits assumed): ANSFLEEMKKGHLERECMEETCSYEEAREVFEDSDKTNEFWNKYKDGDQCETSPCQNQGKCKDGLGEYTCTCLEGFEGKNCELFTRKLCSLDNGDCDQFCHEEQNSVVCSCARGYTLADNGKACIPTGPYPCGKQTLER
pKi: −log10 of the molar value.
METRIC: pKi

Worked cases, pKi given:
[
  {
    "COMPOUND": "CC(C)N1CCC(NC(=O)c2cc3cc(C(=O)N4CCCC4CO)ccc3n2Cc2cc(-c3ccc(Cl)s3)on2)CC1 (centres unmarked)",
    "VALUE OBSERVED": 6.95
  },
  {
    "COMPOUND": "COCCOC(=O)OC(C)OC(=O)c1cccc2c1cc(C(=O)NC1CCN(C(C)C)CC1)n2CC(=O)Nc1ccc(Cl)cn1 (centres unmarked)",
    "VALUE OBSERVED": 8.70
  }
]

a = CC(C)N1CCC(NC(=O)c2cc3cc(C(=O)N4CC(O)C4)ccc3n2Cc2cc(-c3ccc(Cl)s3)on2)CC1
b = CC(C)ONC(=O)c1ccc2c(c1)cc(C(=O)NC1CCN(C(C)C)CC1)n2Cc1cc(-c2ccc(Cl)s2)on1
c = CC(C)N1CCC(NC(=O)c2cc3cc(C(=O)N4CC(O)C4)ccc3n2CC(=O)Nc2ccc(Cl)cn2)CC1
INPUT: Order the entries by their reported pKi, beginning at the minimum. I'd appreciate it if you listed the labels in the requested order.
OUTPUT: a, b, c
